- Test system: Bacteroides fragilis sp. fragilis 107
- EXPERIMENT NOTES: Agar dilution susceptibility of anaerobic bacteria (Chart 1)
- Assay type: cell-based
- TEST PARAMETERS: Bacteroides fragilis, 24 h, agar dilution, 37° C.; Bacteroides fragilis sp. fragilis 107; read-out: 24 Hr. MIC
// reported MIC per item

| MOLECULE | RELATION OPERATOR | MIC (µg/mL) |
| --- | --- | --- |
| CCOC(=O)C(=O)Nc1c(C#N)c(-c2ncc([N+](=O)[O-])n2C)nn1C [Example 1] | = | 0.25 |
| Cn1nc(-c2ncc([N+](=O)[O-])n2C)c(C#N)c1NC(=O)C(=O)c1ccccc1 [Example 10] | ≤ | 0.03 |
| CCC[C@@H]1C[C@@H](C(=O)N[C@@H]([C@H]2O[C@H](SC)[C@H](O)[C@@H](O)[C@H]2O)[C@H](C)Cl)N(C)C1 [C, clindamycin, reference compound] | = | 0.25 |
| Cn1nc(-c2ncc([N+](=O)[O-])n2C)c(C#N)c1NC(=O)C(=O)NN [Example 6] | = | 0.5 |

====

- Test system: Bacteroides fragilis sp. fragilis 110
- EXPERIMENT NOTES: Agar dilution susceptibility of anaerobic bacteria (Chart 1)
- Assay type: cell-based
- TEST PARAMETERS: Bacteroides fragilis, 24 h, agar dilution, 37° C.; Bacteroides fragilis sp. fragilis 110; read-out: 24 Hr. MIC

| COMPOUND | EXPERIMENTAL SYSTEM | RELATION OPERATOR | MIC (µg/mL) |
| --- | --- | --- | --- |
| Cn1nc(-c2ncc([N+](=O)[O-])n2C)c(C#N)c1NC(=O)C(=O)c1ccccc1 | Bacteroides fragilis sp. fragilis 110 | ≤ | 0.03 |
| CCC[C@@H]1C[C@@H](C(=O)N[C@@H]([C@H]2O[C@H](SC)[C@H](O)[C@@H](O)[C@H]2O)[C@H](C)Cl)N(C)C1 [C, clindamycin, reference compound] | Bacteroides fragilis sp. fragilis 110 | = | 0.125 |
| Cn1nc(-c2ncc([N+](=O)[O-])n2C)c(C#N)c1NC(=O)C(=O)NN | Bacteroides fragilis sp. fragilis 110 | = | 0.5 |
| CCOC(=O)C(=O)Nc1c(C#N)c(-c2ncc([N+](=O)[O-])n2C)nn1C | Bacteroides fragilis sp. fragilis 110 | = | 0.25 |
